Each recorded value in this set is attributed to patent US12226405B2.

# Tested on: HIF2α-regulated expression of the endogenous target gene hEGLN3 in 786-O cells
# procedure.summary: Cellular iScript assay for HIF2α (quantitative RT-PCR of hEGLN3)
# Format: cell-based, human
# assay.setup: 48 hours incubation
measured.metric: pIC50
Interpret pIC50 as the negative base-10 log of the concentration measured in mol/L.

(Q) Missing value: pIC50, HIF2α-regulated expression of the endogenous target gene hEGLN3 in 786-O cells, entry O=C1c2c(F)cccc2[C@@]2(C[C@@H]1F)CN1C=C(C(F)(F)F)C=C(OC(F)F)C1=N2 [Example 21] . Fill in?
(A) 6.92

====

# System: HIF2α-dependent transcription in 786-O-HRE-Luc cells
# procedure.summary: In vitro cellular hypoxia response element (HRE) reporter gene assay (RGA) for HIF2α
# Assay type: cell-based, human
# assay.setup: Homo sapiens, 24 hours incubation
Measured pIC50, listed per entry for reference.
Interpret pIC50 as the negative base-10 log of the concentration measured in mol/L.

[[record]]
compound = "O=C1c2c(F)cccc2[C@@]2(C[C@H]1F)CN1C=C(C(F)(F)F)C=C(OC(F)F)C1=N2"
recorded_result = 6.05

[[record]]
compound = "Fc1c(Br)ccc2c1OC[C@H](F)[C@@]21CN2C=C(C(F)(F)F)C=C(OC(F)F)C2=N1"
recorded_result = 6.71

[[record]]
compound = "Cc1nccc2c1C(F)(F)CC[C@@]21CN2C=C(C(F)(F)F)C=C(OC(F)F)C2=N1"
recorded_result = 6.06

[[record]]
compound = "Fc1ccc2c(c1F)OCCC[C@@]21CN2C=C(C(F)(F)F)C=C(OC(F)F)C2=N1"
recorded_result = 6.55

[[record]]
compound = "Fc1cccc2c1OCCC[C@@]21CN2C=C(C(F)(F)F)C=C(OC(F)F)C2=N1"
recorded_result = 6.56


(Q) Look up pIC50 for this compound: FC(F)OC1=CC(C(F)(F)F)=CN2C[C@@]3(CCC(F)(F)c4c3ccnc4Cl)N=C12
(A) 6.61

(Q) Repeat for the following compound: N#Cc1ccc2c(c1F)CCC[C@@]21CN2C=C(C(F)(F)F)C=C(OC(F)F)C2=N1
(A) 6.73

(Q) Repeat for the following compound: FC(F)OC1=CC(C(F)(F)F)=CN2C[C@@]3(CCOc4cc(Br)ccc43)N=C12
(A) 6.82

(Q) Repeat for the following compound: Fc1c(Br)ccc2c1CC[C@@]21CN2C=C(C(F)(F)F)C=C(OC(F)F)C2=N1
(A) 6.63

(Q) Repeat for the following compound: FC1=CC(C(F)(F)F)=CN2C[C@@]3(CCCc4c3ccc(F)c4F)N=C12
(A) 5.88

====

# target.entity: HIF2α PAS-B domain (236-350, biotinylated on the N-terminus) (Homo sapiens (Human))
# Sequence (Q99814 236-350): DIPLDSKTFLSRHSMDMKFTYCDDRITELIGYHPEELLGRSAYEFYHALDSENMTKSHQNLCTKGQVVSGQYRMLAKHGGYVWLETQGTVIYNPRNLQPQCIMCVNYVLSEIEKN
pIC50: −log10 of the molar value.
Threshold rule: pIC50 greater than or equal to 8 is Criterion met; below that, Criterion not met.

(Q) Check this compound for pIC50 at or above 8: FC(F)OC1=CC(C(F)(F)F)=CN2C[C@@]3(CCc4ccccc43)N=C12
(A) Criterion not met

(Q) Repeat for the following compound: N#CC1=CN2C[C@@]3(CCc4cc(I)ccc43)N=C2C(OC(F)F)=C1
(A) Criterion met

(Q) Repeat for the following compound: O=C1c2c(ccc(Br)c2F)[C@]2(CN3C=C(C(F)(F)F)C=C(OC(F)F)C3=N2)CC1(F)F
(A) Criterion not met

(Q) Repeat for the following compound: Fc1cccc2c1CCC[C@@]21CN2C=C(C(F)(F)F)C=C(Cl)C2=N1
(A) Criterion met

(Q) Repeat for the following compound: Fc1c(Cl)ccc2c1COCC[C@@]21CN2C=C(C(F)(F)F)C=C(OC(F)F)C2=N1
(A) Criterion not met

(Q) Repeat for the following compound: [2H]C1C([2H])([2H])Sc2c(F)cccc2[C@]12CN1C=C(C#N)C=C(OC(F)F)C1=N2 (some centres unmarked)
(A) Criterion met
